Ref: paper PMC7663597

# method_description: LX-2 cell survival, sulforhodamine B (SRB) assay
# Assay type: cell-based
# settings: human, LX-2 cells
observation_type: CC50 at 24 h (µM)
Answers are plain numbers, in µM.

INSERT INTO results (compound, observation_type, uom, value_measured) VALUES
  ('O=C(CNS(=O)(=O)c1cc(C(F)(F)F)cc(C(F)(F)F)c1)N1CCCC2=C[C@H]3C[C@H](CN4CCCC[C@H]34)[C@@H]21 [10g]', 'CC50 at 24 h', 'µM', 68.6);

Field: CC50 at 24 h. Fill in for each record below.
1. O=C(CN1CCCC2=C[C@H]3C[C@H](CN4CCCC[C@H]34)[C@@H]21)N1c2ccccc2Oc2ccccc21
2. O=C(CN1CCCC2=C[C@H]3C[C@H](CN4CCCC[C@H]34)[C@@H]21)Nc1ccc(-c2cc3ccccc3[nH]2)cc1
3. O=C(CN1CCCC2=C[C@H]3C[C@H](CN4CCCC[C@H]34)[C@@H]21)N(c1ccccc1)c1ccc2ccccc2c1
4. O=C(CN1CCCC2=C[C@H]3C[C@H](CN4CCCC[C@H]34)[C@@H]21)Nc1cc(Cl)cc(OC(F)(F)F)c1

1: 34.8; 2: 7.5; 3: 17.1; 4: 19.5

----------
Counter-ions that a name gives are not always drawn.
Can you tell me melting point for the items I'm about to list?

INSERT INTO assay_data (molecule, value_measured) VALUES
  ('COC(=O)c1ccc(C)c(NC(=O)CN2CCCC3=C[C@H]4C[C@H](CN5CCCC[C@H]45)[C@@H]32)c1', '75 to 77 °C'),
  ('Cc1cccc(NC(=O)CN2CCCC3=C[C@H]4C[C@H](CN5CCCC[C@H]45)[C@@H]32)c1', '40 to 42 °C'),
  ('O=C(CN1CCCC2=C[C@H]3C[C@H](CN4CCCC[C@H]34)[C@@H]21)Nc1ccc(F)cc1', '119 to 121 °C'),
  ('O=C(CNS(=O)(=O)c1cccc(C(F)(F)F)c1)N1CCCC2=C[C@H]3C[C@H](CN4CCCC[C@H]34)[C@@H]21 [10e]', '91 to 93 °C'),
  ('O=C(CN1CCCC2=C[C@H]3C[C@H](CN4CCCC[C@H]34)[C@@H]21)NC1CCOCC1 (as salt: hydrochloride)', '199 to 201 °C'),
  ('O=C(CN1CCCC2=C[C@H]3C[C@H](CN4CCCC[C@H]34)[C@@H]21)NC12CC3CC(CC(C3)C1)C2', '176 to 178 °C'),
  ('O=C(CNS(=O)(=O)c1cccc(Br)c1)N1CCCC2=C[C@H]3C[C@H](CN4CCCC[C@H]34)[C@@H]21 [10d]', '101 to 103 °C'),
  ('O=C(CN1CCCC2=C[C@H]3C[C@H](CN4CCCC[C@H]34)[C@@H]21)NS(=O)(=O)c1ccccc1', '113 to 115 °C'),
  ('O=C(CN1CCCC2=C[C@H]3C[C@H](CN4CCCC[C@H]34)[C@@H]21)NS(=O)(=O)c1ccc(Br)c(C(F)(F)F)c1', '79 to 81 °C'),
  ('O=C(CN1CCCC2=C[C@H]3C[C@H](CN4CCCC[C@H]34)[C@@H]21)NS(=O)(=O)c1cccc(C(F)(F)F)c1', '105 to 107 °C');

Take each entry in turn and give its melting point.
1. O=C(CNS(=O)(=O)c1ccccc1)N1CCCC2=C[C@H]3C[C@H](CN4CCCC[C@H]34)[C@@H]21 [10c]
2. O=C(CN1CCCC2=C[C@H]3C[C@H](CN4CCCC[C@H]34)[C@@H]21)NS(=O)(=O)c1ccc2ccccc2c1

1: 63 to 65 °C; 2: 93 to 95 °C

----------
# method_description: in vivo
# settings: both sexes, Kunming, mouse, po
observation_type: LD50 at 7 days (mg/kg)
Give bare numbers, in mg/kg.

Take a look at these entries with their results.
INSERT INTO results (molecule, observation_type, value_measured) VALUES
  ('O=C(CN1CCCC2=C[C@H]3C[C@H](CN4CCCC[C@H]34)[C@@H]21)Nc1cc(Cl)cc(OC(F)(F)F)c1 [4i]', 'LD50 at 7 days', 100),
  ('O=C(CN1CCCC2=C[C@H]3C[C@H](CN4CCCC[C@H]34)[C@@H]21)N(c1ccccc1)c1ccc2ccccc2c1 [4n]', 'LD50 at 7 days', 500);

Reported LD50 at 7 days, molecule O=C(CN1CCCC2=C[C@H]3C[C@H](CN4CCCC[C@H]34)[C@@H]21)N1c2ccccc2Oc2ccccc21 [4p] : ____
400

----------
# method_description: HepG2 cell survival, MTT assay
# Format: cell-based
# settings: human, HepG2 cells
Response field label: string, one of criterion met (CC50 at 24 h strictly below 20 µM) or criterion not met.

Examples with answers:
INSERT INTO measurements (compound, class_label) VALUES
  ('O=C(CN1CCCC2=C[C@H]3C[C@H](CN4CCCC[C@H]34)[C@@H]21)N1c2ccccc2Oc2ccccc21', 'criterion not met'),
  ('O=C(CN1CCCC2=C[C@H]3C[C@H](CN4CCCC[C@H]34)[C@@H]21)Nc1cc(Cl)cc(OC(F)(F)F)c1', 'criterion not met'),
  ('O=C(CN1CCCC2=C[C@H]3C[C@H](CN4CCCC[C@H]34)[C@@H]21)Nc1ccc(-c2cc3ccccc3[nH]2)cc1', 'criterion met'),
  ('O=C(CN1CCCC2=C[C@H]3C[C@H](CN4CCCC[C@H]34)[C@@H]21)N(c1ccccc1)c1ccc2ccccc2c1', 'criterion not met');

CC50 at 24 h under 20 µM? Item: O=C(CNS(=O)(=O)c1cc(C(F)(F)F)cc(C(F)(F)F)c1)N1CCCC2=C[C@H]3C[C@H](CN4CCCC[C@H]34)[C@@H]21 [10g]
criterion not met

----------
Please respond with reported melting point for every item in the list.

INSERT INTO assay_data (molecule, observation_type, value_measured) VALUES
  ('O=C(CNS(=O)(=O)c1cc(C(F)(F)F)cc(C(F)(F)F)c1)N1CCCC2=C[C@H]3C[C@H](CN4CCCC[C@H]34)[C@@H]21 [10g]', 'melting point', '78 to 80 °C'),
  ('CCNC(=O)CN1CCCC2=C[C@H]3C[C@H](CN4CCCC[C@H]34)[C@@H]21 [4a, 12N-N′-Ethylcarbamoylmethyl aloperine]', 'melting point', '69 to 71 °C'),
  ('O=C(CN1CCCC2=C[C@H]3C[C@H](CN4CCCC[C@H]34)[C@@H]21)Nc1cccc2ncccc12 [4l]', 'melting point', '74 to 76 °C'),
  ('O=C(CN1CCCC2=C[C@H]3C[C@H](CN4CCCC[C@H]34)[C@@H]21)Nc1cccc(OC(F)(F)F)c1 [4g]', 'melting point', '50 to 52 °C'),
  ('CCS(=O)(=O)NCC(=O)N1CCCC2=C[C@H]3C[C@H](CN4CCCC[C@H]34)[C@@H]21 [10a]', 'melting point', '145 to 147 °C');

Below are some molecules; for each one, tell me its melting point.
1. O=C(CNS(=O)(=O)c1cccc(OC(F)(F)F)c1)N1CCCC2=C[C@H]3C[C@H](CN4CCCC[C@H]34)[C@@H]21 [10f]
2. CCCCS(=O)(=O)NCC(=O)N1CCCC2=C[C@H]3C[C@H](CN4CCCC[C@H]34)[C@@H]21 [10b]
3. O=C(CN1CCCC2=C[C@H]3C[C@H](CN4CCCC[C@H]34)[C@@H]21)Nc1ccc(-c2cc3ccccc3[nH]2)cc1 [4h]
4. Cc1cc(NC(=O)CN2CCCC3=C[C@H]4C[C@H](CN5CCCC[C@H]45)[C@@H]32)cc(C)c1C [4k]
5. O=C(CN1CCCC2=C[C@H]3C[C@H](CN4CCCC[C@H]34)[C@@H]21)Nc1ccccc1 [4d, 12N-N′-Phenylcarbamoylmethyl aloperine]
6. CN(C(=O)CN1CCCC2=C[C@H]3C[C@H](CN4CCCC[C@H]34)[C@@H]21)c1ccccc1 [4m]

81 to 83 °C
98 to 100 °C
219 to 221 °C
183 to 185 °C
66 to 68 °C
73 to 75 °C

So what does the record say about melting point for O=C(CN1CCCC2=C[C@H]3C[C@H](CN4CCCC[C@H]34)[C@@H]21)N1CCCC1 [4o] ?
78 to 80 °C
